# Tested on: UACC-62
# test.name: NCI tumour cell line growth inhibition, 48 h
Where a name gives a salt, the structure may show the parent alone. The source made the active and inactive calls. Rule as the data show it: active = GI50 up to about 1.1 µM and inactive = higher.
Please reply with one of these outcomes: active, inactive

Study these solved cases before continuing.
compound: Oc1ccc(C(O)C2CCCCN2)cc1O (stereo unspecified) [RIMITEROL HYDROBROMIDE]
assigned.label: inactive
//
compound: O=c1c(Sc2c(SCSc3cnc4ccccc4c3Sc3c[nH]c4ccccc4c3=O)cnc3ccccc23)c[nH]c2ccccc12
assigned.label: inactive
//
compound: O=C1C=C(c2ccccc2)OC1C1Sc2ccccc2NC1=O (stereo unspecified)
assigned.label: inactive
//
compound: COc1ccc(CCNC(=O)Cc2cc(OC)c(OC)cc2CO)cc1OC
assigned.label: inactive
//
compound: N#CCCN(C1=NN(C(=O)CC(=O)Nc2ccc(Cl)cc2)C(c2ccccc2)C1)c1ccc(Cl)cc1 (stereo unspecified)
assigned.label: inactive
//
compound: COc1cc2c(cc1-c1coc3cc(O)ccc3c1=O)OCO2
assigned.label: inactive

Query: Could you check what this test reported for Cc1cc(N(CCC#N)CCC#N)ccc1/C=C(\NC(=O)/C=C/c1ccccc1)C(=O)Nc1ccc(Cl)cc1 ?
Reply: active

Query: Could you check what this test reported for CS(=O)(=O)OCCN(CCOS(C)(=O)=O)c1ccc(C=O)cc1 ?
Reply: inactive

Query: Could you check what this test reported for CC(=O)Nc1ccccc1NC1CC(C)N(c2ccccc2)N1C(C)=O (stereo unspecified) ?
Reply: inactive

Query: Could you check what this test reported for C[C@]12CC[C@H](OC3CCCCO3)CC1=CC[C@@H]1C2CC[C@]2(C)/C(=N/O)CCC12 (stereo partly specified) ?
Reply: inactive

Query: Could you check what this test reported for CN(C(=O)c1cccs1)C(=S)N1CCN(c2ccccn2)CC1 ?
Reply: inactive

Query: Could you check what this test reported for O=C(NN1C(=O)C(Cl)C1c1ccc(Cl)cc1)c1c(Cl)c(Cl)c(Cl)c(Cl)c1-c1nc2ccccc2[nH]1 (stereo unspecified) ?
Reply: inactive

Query: Could you check what this test reported for N=C(N)n1nc2c(c1O)CCCC2 ?
Reply: inactive

Query: Could you check what this test reported for CC(=O)OC(C)(C)[C@@H]1CC[C@]2(C)/C=C/[C@H](C)C[C@@H](O)C3=C(C)C[C@@H](O3)C12 (stereo partly specified) ?
Reply: inactive

Query: Could you check what this test reported for CCOC(=O)C(NC(=O)CC)(Nc1ccc(F)c(Cl)c1)C(F)(F)F (stereo unspecified) ?
Reply: inactive

----------
# Test system: OVCAR-4
# test.name: NCI tumour cell line growth inhibition, 48 h
Activity calls are given as the source filed them. Rule as the data show it: active = GI50 up to about 1.1 µM and inactive = higher.
The entries below come with measured GI50 values attached.

Use these answered entries as a reference point.
compound: COc1cc(C2SCC(=O)N2c2ccc(Cl)cc2)cc(I)c1O (configuration not stated)
target: OVCAR-4
parameter: GI50
experimental.result: 3.37 µM (inactive)

compound: Cc1cc(O)nc(NN2C(Cl)C(=O)C2c2ccc([N+](=O)[O-])cc2)n1 (configuration not stated)
target: OVCAR-4
parameter: GI50
experimental.result: 13.7 µM (inactive)

compound: CC(C)(C)OC(=O)CC(NC(=O)OC(C)(C)C)C(=O)Oc1ccc([N+](=O)[O-])cc1 (configuration not stated)
target: OVCAR-4
parameter: GI50
experimental.result: > 100 µM (inactive)

compound: Cc1ccc(N(C(=O)Nc2ccccc2)C2=NCC(C)S2)cc1C (configuration not stated)
target: OVCAR-4
parameter: GI50
experimental.result: 28.9 µM (inactive)

compound: O=S(=O)(O)c1c(Cl)cc(O)c2ncccc12
target: OVCAR-4
parameter: GI50
experimental.result: > 100 µM (inactive)

compound: O/N=C1\SC(=N\O)/C(=N/O)S\C1=N/O
target: OVCAR-4
parameter: GI50
experimental.result: > 100 µM (inactive)

Would you kindly look at the next entry?
Query: GI50 for CCCC(=O)OCC1OC(n2cc(F)c(=O)[nH]c2=O)C(F)C1O (configuration not stated) ?
Reply: > 100 µM (inactive)

----------
The entries below come with measured GI50 values attached.
# Tested on: LOX IMVI
# test.name: NCI tumour cell line growth inhibition, 48 h
Active and inactive are the calls of the source. Cut-off read from the data, not from the text of the source: active = GI50 up to about 1.1 µM and inactive = higher. Non-standard residues stand in square brackets, D forms with d. Residues, ends and D or L forms follow the SMILES beside them. ξ: configuration not given here. *: point of attachment. ξNMeF = CNC(Cc1ccccc1)C(=O)O; NMeV = CN[C@H](C(=O)O)C(C)C; Boc = CC(C)(C)OC(=O)*; OBn = c1ccc(CO*)cc1

compound: CC(C)[C@@H](C(=O)N(C)[C@H](C(=O)N1CCC[C@H]1C(=O)OCc1ccccc1)C(C)C)N(C)C(=O)C(Cc1ccccc1)N(C)C(=O)[C@H](NC(=O)OC(C)(C)C)C(C)C (some centres undefined) (Boc-[dV][ξNMeF][NMeV][NMeV]P-OBn)
parameter: GI50
experimental.result: > 31.6 µM (inactive)
//
compound: CC(C)=CCNc1ncnc2c1c(C#N)cn2C1OC(CO)C(O)C1O (centres undefined)
parameter: GI50
experimental.result: > 79.8 µM (inactive)
//
compound: c1ccc2c3nnc(c2c1)SCCSCCSc1nnc(c2ccccc12)SCCSCCS3
parameter: GI50
experimental.result: > 100 µM (inactive)
//
compound: CCCCc1c2c(nc3c1CCCC3O)/C(=C/c1ccccc1)CCC2 (centres undefined)
parameter: GI50
experimental.result: 19.7 µM (inactive)
//
compound: CN1C(=O)CC2(C)c3cc(C=O)ccc3N(C)C12 (centres undefined)
parameter: GI50
experimental.result: > 100 µM (inactive)
//
compound: CCOC(=O)Cn1c(=O)c2cc(-c3ccccc3)cc3c(Cl)nc4c(OC)c(OC)cc1c4c32
parameter: GI50
experimental.result: 11.6 µM (inactive)
//
compound: Cc1nc2ccc(S(=O)(=O)O)cc2c(=O)n1-c1ccc(C(=O)NN2C(=O)C(Cl)C2c2ccccc2O)cc1 (centres undefined)
parameter: GI50
experimental.result: > 100 µM (inactive)
//
compound: CC(C)CCC1(O)O[C@H]2C[C@H]3[C@@H]4CCC5CC(=O)C=C[C@]5(C)[C@H]4CC[C@]3(C)[C@H]2[C@@H]1C (some centres undefined)
parameter: GI50
experimental.result: 12.7 µM (inactive)
//
compound: C/N=c1\sc2nc(C#N)c(C#N)nc2n1C
parameter: GI50
experimental.result: 17.8 µM (inactive)
//
compound: Cc1ccc(/N=C2N=C(Cl)/C(=C\c3ccco3)N\2)cc1
parameter: GI50
experimental.result: > 100 µM (inactive)

Query: GI50 for O=C1CC(NC2CC(=O)c3c(Br)sc(Br)c32)c2c(Br)sc(Br)c21 (centres undefined) ?
Reply: 1.92 µM (inactive)

Query: GI50 for O=C(/C=C/c1ccco1)N1CCN(Cc2ccccc2)CC1 ?
Reply: > 100 µM (inactive)

Query: GI50 for O=C1c2c[nH]nc2C(c2ccccc2)N1c1ccccc1 (centres undefined) ?
Reply: > 10 µM (inactive)

Query: GI50 for Oc1cccc(-c2cc(=S)ss2)c1 ?
Reply: 14.8 µM (inactive)

Query: GI50 for COc1cc2c(cc1-c1coc3cc(O)ccc3c1=O)OCO2 ?
Reply: 46.6 µM (inactive)

----------
# System: SNB-78
# test.name: NCI tumour cell line growth inhibition, 48 h
The source made the active and inactive calls. Cut-off read from the data, not from the text of the source: active = GI50 up to about 1.1 µM and inactive = higher.
parameter: GI50

Use these answered entries as a reference point.
molecule: CC(=O)OC(C)(C)[C@@H]1CC[C@]2(C)/C=C/[C@H](C)C[C@@H](O)C3=C(C)C[C@@H](O3)C12 (stereo partly drawn)
GI50: > 100 µM (inactive)
--
molecule: O=P1(c2ccccc2)CCCCC1
GI50: > 100 µM (inactive)
--
molecule: Cc1ccc(S(=O)(=O)NNC(=O)c2sc(-c3nc(C)c(C(=O)NNS(=O)(=O)c4ccc(C)cc4)s3)nc2C)cc1
GI50: > 100 µM (inactive)
--
molecule: CN(C)CCN(C)CCC(=O)/C=C/c1ccccc1
GI50: 31 µM (inactive)
--
molecule: CC(C)(C)NNC(=O)/C(=C/c1ccc(Oc2ccc(Cl)c(Cl)c2)cc1)NC(=O)c1ccccc1
GI50: > 100 µM (inactive)
--
molecule: CC1c2c(Cl)nc3ccccc3c2Oc2c1c(Cl)nc1ccccc21
GI50: > 100 µM (inactive)
--
molecule: Cc1ccc(C)c2c1C1CCCCC3(OCCCO3)C21O (stereo not drawn)
GI50: > 100 µM (inactive)
--
molecule: CC(=O)OCC1OC(n2c(-c3ccc(C)cc3)cc(-c3ccccc3)c(C#N)c2=O)C(OC(C)=O)C(OC(C)=O)C1OC(C)=O (stereo not drawn)
GI50: > 100 µM (inactive)
--
molecule: CCOC(=O)C(=Cc1ccc(Oc2ccccc2)cc1)C(=O)OCC
GI50: 5.7 µM (inactive)
--
molecule: COC(=O)C[C@](O)(CCC(C)(C)O)C(=O)O[C@@H]1C(OC)=C[C@]23CCCN2CCc2cc4c(cc2[C@H]13)OCO4
GI50: 0.256 µM (active)

Query: GI50 for COC(=O)C1CCC(N2C(=O)CCC2C(=O)OC)=N1 (stereo not drawn) ?
Reply: > 100 µM (inactive)

Query: GI50 for CC(=O)OCC1OC(n2cccnc2=O)C(OC(C)=O)C1OC(C)=O (stereo not drawn) ?
Reply: > 100 µM (inactive)

Query: GI50 for Cc1ccc2nc3c(Cl)cc(=O)cc-3sc2c1 ?
Reply: 39.2 µM (inactive)
